# System: SK-OV-3 ovarian
# procedure_details: NCI tumour cell line growth inhibition, 48 h
Consider the following compounds and their measured TGI readings.

Examples with their reported TGI follow.
# return recorded TGI for input `Cc1cc(NCCCNc2ccnc3cc(Cl)ccc23)nc(N2CCN(C)CC2)n1` 45.6 µM

# return recorded TGI for input CC(=O)N1N=C(c2ccc(Nc3nc(Nc4ccc(Cl)cc4)nc(Nc4ccc(Cl)cc4)n3)cc2)CC1c1ccc([N+](=O)[O-])cc1 (centres undefined) 34.2 µM

# return recorded TGI for input `O=c1cc(-c2ccc(O)cc2)n(C2CC2)c2ccccc12` 42.6 µM

# return recorded TGI for input `COc1ccc(/C=C/c2sc3ccccc3[n+]2CCCCI)cc1OC` > 10 µM

New cases:
# return recorded TGI for input `O=Cc1cc([N+](=O)[O-])no1` > 100 µM

# return recorded TGI for input `COc1cc(-n2cc(-c3ccc(F)cc3)nc2SCc2ccccc2)cc(OC)c1OC` > 100 µM

# return recorded TGI for input COC(=O)CC1C(COC(C)=O)OC(n2cc(C)c(=O)[nH]c2=O)C1OC(C)=O (centres undefined) > 100 µM

# return recorded TGI for input `CC(=O)Nc1ccc(N=C2C(c3ccccc3)=C(SC3=C(c4ccccc4)C(=Nc4ccc(NC(C)=O)cc4)c4ccccc43)c3ccccc32)cc1` > 100 µM

# return recorded TGI for input O=S1(=O)C(c2ccccc2)C(N2CCCCC2)C1C1CC2c3ccccc3C1c1ccccc12 (centres undefined) > 100 µM

# return recorded TGI for input O=C1C2C(C(=O)[N]1[Hg][c]1cccs1)C1(Cl)C(Cl)=C(Cl)C2(Cl)C1(Cl)Cl (centres undefined) 17.9 µM

# return recorded TGI for input COc1ccc2c(c1O)C13CCN(C)C(C2)C1CCC1(C3)OCCO1 (centres undefined) > 100 µM

# return recorded TGI for input `Cc1ccc(Cc2n[nH]c(=O)n2/N=C\CC/C=N\n2c(Cc3ccc(C)cc3)n[nH]c2=O)cc1` > 100 µM

# return recorded TGI for input CC(=O)Oc1c(C)c2c(O)c3c1C1=C(OCOC1=C(C)C3=O)/C(C)=C\C(C)(O)C(O)C(C)C(O)C1C(=O)OC(C(C)C1O)C(C)(O)/C=C/C=C(C)C(=O)N2 (centres undefined) > 100 µM

# return recorded TGI for input `Cc1ncc([N+](=O)[O-])n1CCN(C)C(=O)CCCn1ccnc1[N+](=O)[O-]` > 100 µM

# return recorded TGI for input `O=C(C=P(c1ccccc1)(c1ccccc1)c1ccccc1)c1cccc(-c2cccc([N+](=O)[O-])c2)c1` 51.2 µM

# return recorded TGI for input `CC[O-].CC[O-].O=C([CH-]C(=O)c1cccnc1)c1ccccc1.O=C([CH-]C(=O)c1cccnc1)c1ccccc1.[Ti+4]` > 100 µM

# return recorded TGI for input OC1(c2ccc(Cl)cc2)c2c(ccc3c2OCO3)C2=NCCN21 (centres undefined) > 100 µM

# return recorded TGI for input CC(=O)N1CN2C(=O)CCC2c2ccccc21 (centres undefined) > 100 µM

# return recorded TGI for input COc1ccc2c(c1)C(=O)N1CCOC1C2C(=O)O (centres undefined) > 100 µM

----------
# Test system: SNB-75 CNS
# procedure_details: NCI tumour cell line growth inhibition, 48 h
measured_parameter: TGI

Examples with their reported TGI follow.
# return recorded TGI for input `CC(C)(O)C#Cc1ccc(/C=C/C(=O)c2ccccc2)s1` 27 µM

# return recorded TGI for input `COc1ccc2c(c1)CCN=C2Cc1cc(OC)c(OC)cc1CCCl` > 100 µM

# return recorded TGI for input COC(=O)C1CCC(Nc2ccc(C)cc2C)=N1 (stereo unspecified) > 100 µM

# return recorded TGI for input O=C1CCCC2C(O)CCC[C@H]12 (stereo partly specified) > 100 µM

# return recorded TGI for input C#CCNC(=O)NCCCC(NC(C)=O)C(=O)NCc1ccccc1 (stereo unspecified) > 100 µM

# return recorded TGI for input `O=C(O)c1cc(=O)[nH]c(SCc2ccccc2)n1` > 100 µM

# return recorded TGI for input `CN(c1cc2ncc(=O)[nH]c2cc1NC(N)=NCc1ccc(Cl)cc1)C1CCCCC1` 10.1 µM

# return recorded TGI for input `Nc1nc2sc3ccccc3c(=O)n2n1` > 100 µM

New cases:
# return recorded TGI for input O=C1NC(=O)C(CC(C(=O)C(=O)Nc2ccccc2Cl)C(=O)c2ccc3ccccc3c2)C(=O)N1 (stereo unspecified) > 100 µM

# return recorded TGI for input `COc1cc(-c2cc(=O)c3c(OC)c(OC)c(OC)cc3o2)c(OC)c(OC)c1OC` > 75 µM

# return recorded TGI for input `O=C(N/N=C(/COc1ccc(Cl)cc1)N=Cc1cccnc1)c1ccncc1` > 100 µM

# return recorded TGI for input COC(=O)CC1C(COC(C)=O)OC(n2cc(C)c(=O)[nH]c2=O)C1OC(C)=O (stereo unspecified) > 100 µM

# return recorded TGI for input `C#CCN(Cc1nc2cc(C(F)(F)F)ccc2nc1-c1ccccc1)c1ccc(OC(F)(F)F)cc1` > 100 µM

# return recorded TGI for input `Cc1cc2cc3cc(C)c(N(C)C)cc3[n+](C)c2cc1N(C)C` 31.4 µM

# return recorded TGI for input COc1cc2c(c(O)c1OC)C(O)C1CCC(=O)N1C2c1cccc2ccccc12 (stereo unspecified) > 100 µM

----------
# Test system: COLO 205 colon
# procedure_details: NCI tumour cell line growth inhibition, 48 h; in the data active means GI50 below about 0.43 µM; inactive means the rest
Your response should consist of one outcome taken from active, inactive

Name the outcome recorded for `COc1cc(-c2nc3sccn3c2-c2ccnc(NCCNS(=O)(=O)c3ccc(Cl)cc3)n2)ccc1F` in the assay. inactive

Name the outcome recorded for `CCCc1cc(O)c2c3c(c(=O)oc2c1)CN(C)CC3` in the assay. inactive

Name the outcome recorded for `CCCCOc1ccc(NC(=O)n2nc(N)c3ccccc32)cc1` in the assay. inactive

Name the outcome recorded for `CCCCCCc1cc2cc(-c3nc4ccccc4[nH]3)c(=Nc3ccccc3C)oc2cc1O` in the assay. inactive

Name the outcome recorded for O=C1C2C(C(=O)[N]1[Hg][c]1cccs1)C1(Cl)C(Cl)=C(Cl)C2(Cl)C1(Cl)Cl (centres undefined) in the assay. inactive

Name the outcome recorded for `Cn1cc(C2=C(c3cn(CCO)c4ccccc34)C(=O)NC2=O)c2ccccc21` in the assay. inactive

New cases:
Name the outcome recorded for `COc1ccc2c(c1)=C(C=C1C=CN(O)C=C1)C(=O)N=2` in the assay. inactive

Name the outcome recorded for `Cn1cc(C2=C(c3cccc(N)c3)C(=O)NC2=O)c2ccccc21` in the assay. inactive

Name the outcome recorded for `CCN1/C(=C/C=C/c2n(-c3ccccc3)c3ccc(-c4nc5ccccc5s4)cc3[n+]2CC)N(c2ccccc2)c2ccc(-c3nc4ccccc4s3)cc21` in the assay. active

----------
Consider the following compounds and their measured TGI readings.
# Tested on: MOLT-4 leukemia
# procedure_details: NCI tumour cell line growth inhibition, 48 h

Examples with their reported TGI follow.
Param request: TGI | system MOLT-4 leukemia | item CC(=O)Oc1cc(C)c2c(c1OC(C)=O)CC1(O2)[C@@H](C)CCC2[C@@]3(C)CC[C@H](OC(C)=O)C(C)(C)C3CC[C@]21C (stereo partly specified) 42.2 µM

Param request: TGI | system MOLT-4 leukemia | item `O=c1ccc(N=Nc2ccc([N+](=O)[O-])cc2)ccc1O` > 100 µM

Param request: TGI | system MOLT-4 leukemia | item `Cn1cc(C2=C(c3cn(CCO)c4ccccc34)C(=O)NC2=O)c2ccccc21` 16.8 µM

Param request: TGI | system MOLT-4 leukemia | item `N/C(=C\C(=O)n1nc(-c2ccccc2)cc1N)c1ccccc1` 17.8 µM

Param request: TGI | system MOLT-4 leukemia | item `Nc1ccccc1-c1ccc([N+](=O)[O-])cc1` > 100 µM

New cases:
Param request: TGI | system MOLT-4 leukemia | item NC(=O)c1cccc(C2OC(COP(=O)(O)O)C(O)C2O)c1 (stereo unspecified) > 50 µM

Param request: TGI | system MOLT-4 leukemia | item `Cc1ccc(O)c(C(c2ccc([N+](=O)[O-])cc2)c2cc(C)ccc2O)c1` 26.3 µM

Param request: TGI | system MOLT-4 leukemia | item CC1(C)/C(=N\O)C2(C#N)CCC1C2 (stereo unspecified) > 100 µM

Param request: TGI | system MOLT-4 leukemia | item COC(=O)C1=C(C(=O)OC)C(Cc2ccccc2)(OO)OC1=O (stereo unspecified) 30.8 µM

Param request: TGI | system MOLT-4 leukemia | item `COc1ccc(/C=C2\C(=O)N(C)C(=O)c3cc(OC)c(OC)cc32)cc1OC` > 100 µM

Param request: TGI | system MOLT-4 leukemia | item Cc1ccc(NP(=O)(Oc2ccccc2)N(CCCl)CCCl)cc1 (stereo unspecified) > 100 µM

Param request: TGI | system MOLT-4 leukemia | item `O=C(O)c1cc(=O)[nH]c(SCc2ccccc2)n1` > 100 µM

Param request: TGI | system MOLT-4 leukemia | item CN(CCCCCl)P(=O)(OCc1ccc([N+](=O)[O-])o1)OCC1OC(n2ccc(N)nc2=O)C(F)(F)C1O (stereo unspecified) 8.92 µM

Param request: TGI | system MOLT-4 leukemia | item CCN(CC)CCCC(C)Nc1ccnc2cc3ccccc3cc12 (stereo unspecified) > 100 µM

Param request: TGI | system MOLT-4 leukemia | item `CCCCCCCC(=O)NCC(O)CNC(=O)CCCCCCC` > 100 µM

Param request: TGI | system MOLT-4 leukemia | item CN(C)CCC(O)(c1ccccc1)C(O)(CCN(C)C)c1ccccc1 (stereo unspecified) > 100 µM

Param request: TGI | system MOLT-4 leukemia | item `Cn1cc(C2=C(c3cccc(N)c3)C(=O)NC2=O)c2ccccc21` > 25 µM

Param request: TGI | system MOLT-4 leukemia | item `O=S(=O)(Cc1ccc(Cl)cc1Cl)c1ccc(Cl)cc1` > 100 µM

Param request: TGI | system MOLT-4 leukemia | item `N#Cc1c2c(c(Nc3cccc(C(F)(F)F)c3)n3c1nc1ccccc13)CCC2` > 100 µM

Param request: TGI | system MOLT-4 leukemia | item CC(=O)Oc1c(C)c2c(O)c3c1C1=C(OCOC1=C(C)C3=O)/C(C)=C\C(C)(O)C(O)C(C)C(O)C1C(=O)OC(C(C)C1O)C(C)(O)/C=C/C=C(C)C(=O)N2 (stereo unspecified) > 100 µM

Param request: TGI | system MOLT-4 leukemia | item `CCOC(=O)[C@]12C(=C(c3ccccc3)O[C@H]3C=CCC[C@H]31)C(=O)C(=O)N2c1ccccc1` 61.3 µM

Measured values drawn from PubChem BioAssay (NCI) for this set.
